- Tested on: UACC-62
- ASSAY REMARKS: NCI tumour cell line growth inhibition, 48 h
The source made the active and inactive calls. No stated cut-off is given here; in the data, active = GI50 up to about 1.1 µM and inactive = higher.
Give your call using only these classes: TRUE for active, FALSE for inactive

Answered examples (6):
Ask: What outcome does the record of this test show for CC(C)[Si](OC1=C(c2ccccc2)C(NC(=O)/C=C/c2ccc([N+](=O)[O-])cc2)CCC1)(C(C)C)C(C)C (centres undefined) ?
Reply: FALSE

Ask: Which outcome was assigned to O=C(N/N=C\c1ccc(Cl)cc1)Nc1ccc2ccccc2c1 in this test?
Reply: FALSE

Ask: Could you kindly confirm the outcome this assay logged for CC1CC(=O)Nc2ccc(Cl)cc2N1C(=O)CN1CCC(CCCCN(C)C)CC1 (centres undefined) ?
Reply: FALSE

Ask: So what was the verdict on CCOC(=O)c1cc(C)nc2c1c(=O)n(-c1ccccc1)c(=O)n2CCCCN1CCN(c2ncccn2)CC1 in this test?
Reply: FALSE

Ask: Write down the call the test reported for this compound. Item: O=C1OC(c2ccco2)=N/C1=C\c1cccc([N+](=O)[O-])c1
Reply: FALSE

Ask: Just curious, what result did CC(=O)OC1COC(n2nc(/C=C/c3ccc(Cl)cc3)c(=O)n(/N=C/c3ccccc3)c2=S)C(OC(C)=O)C1OC(C)=O (centres undefined) get here?
Reply: FALSE

Further cases:
Ask: Status in this test for CC1(C)N=C(N)N=C(N)N1c1ccc(Cl)cc1 ?
Reply: FALSE

Ask: Field: outcome | Entry: COC(=O)CN(CC(O)C(NC(C)=O)C(O)C=O)C(=O)OCc1ccccc1 (centres undefined)
Reply: FALSE

Ask: # outcome recorded in this test, key = C[C@@H](CC(=O)OCc1ccccc1)OC1OC(COC(=O)C(C)(C)C)C(OC(=O)C(C)(C)C)C(OC(=O)C(C)(C)C)C1OC(=O)C(C)(C)C (some centres undefined)
Reply: FALSE

Ask: Tell me the recorded outcome of this test for CN(C)c1ccc(/C=C/C(=O)c2ccccc2)cc1Br .
Reply: FALSE

Ask: Query: recorded result category for O=[N+]([O-])c1cccc2nc3ccccc3c(NCCC[N+]3([O-])CCCCC3)c12 in this test
Reply: TRUE

---

- System: ACHN
- ASSAY REMARKS: NCI tumour cell line growth inhibition, 48 h
Structures can show the parent of a compound that is named as a salt. Active and inactive are the calls of the source. Cut-off read from the data, not from the text of the source: active = GI50 up to about 1.1 µM and inactive = higher.
Pick from True for active, False for inactive when you respond.

Ask: Entry COC(=O)[C@H](Cc1c[nH]c2ccccc12)NC(=O)c1ccccc1I : call = ?
Reply: False

Others:
Ask: Returns: the outcome recorded for CC1CC(Nc2ccc(Br)cc2)N(C(=O)c2ccc(Br)cc2)O1 (stereo unspecified) in this assay.
Reply: True

Ask: Hey, what did the test say about CC1C(c2ccccc2)OP(=O)(OC(C#N)c2ccccc2)N1C (stereo unspecified) ?
Reply: False

Ask: Field: outcome | Entry: CC(=O)OCC(OC(C)=O)C(OC(C)=O)C(OC(C)=O)C(/C=N\Nc1nc2ccccc2c(=O)[nH]1)=N/Nc1nc2ccccc2c(=O)[nH]1 (stereo unspecified)
Reply: False

Ask: Please state the recorded outcome for this compound: NC(CCSCC(F)F)C(=O)O (stereo unspecified)
Reply: False

Ask: In this assay, the call recorded for C=CCCCC1(C)CCNC1=S (stereo unspecified) was what?
Reply: False

Ask: How did this test come out for N#C/C(=C\c1ccc(Br)cc1)c1nc(-c2cc3ccccc3oc2=O)cs1 ?
Reply: False

Ask: What is the recorded call for this compound in the test? N#Cc1c(NC(=S)Nc2ccc(Cl)cc2)sc2c1CCN(N1CCc3c(sc(NC(=S)Nc4ccc(Cl)cc4)c3C#N)C1)C2
Reply: False

Ask: What did this assay record as the result for COc1cc(/C=C(\C#N)C(=O)c2ccccc2)cc(OC)c1OC ?
Reply: False

Ask: Dear all, I need the recorded test outcome for O=C1/C(=C/c2ccc(Cl)cc2)NC(=S)N1CN1CCCCC1 , thank you.
Reply: False

Ask: Write down the call the test reported for this compound. Item: CCc1ccc2c(c1)N(CC(C)CN(C)C)c1ccccc1S2 (stereo unspecified) [ETYMEMAZINE HYDROCHLORIDE]
Reply: False

Ask: Assay result, entry CC1(C)CCc2c(cc3c(c2O)CCC(C)(C)O3)O1 — outcome?
Reply: False

Ask: Hi team, can someone confirm the assay call for NC(=S)NNc1c([N+](=O)[O-])cnn(-c2ccccc2)c1=O ?
Reply: False

Ask: # outcome recorded in this test, key = CC(C(=O)[O-])S(=O)(=O)O.CCc1c2cc(OC)c(OC)cc2cc2c3cc(OC)c(OC)cc3cc[n+]12
Reply: False

Ask: Hi team, can someone confirm the assay call for COc1ccc(C=O)cc1Oc1ccc(C[C@H]2c3c(cc(OC)c4c3Oc3cc5c(cc3O4)CCN(C)C5=O)CCN2C)cc1 ?
Reply: False

Ask: # lookup: test call for O=C(c1ccccc1)c1ccc2nc3n(c2c1)C(c1c(F)cccc1F)SC3 (stereo unspecified)
Reply: False

---

Reported GI50 values for a set of compounds
- Test system: IGROV-1
- ASSAY REMARKS: NCI tumour cell line growth inhibition, 48 h
The source made the active and inactive calls. No stated cut-off is given here; in the data, active = GI50 up to about 1.1 µM and inactive = higher.

Recorded GI50, per entry:
In plain terms, C[C@@H](CC(O)C(O)C(C)(C)O)C1CCC23CC12CCC1[C@@]2(C)CCC(O)C(C)(C)C2CC(OC2OC(CO)C(O)C(O)C2O)[C@]13C (stereo not given in full) has a documented GI50 of > 10 µM (inactive)

Measured GI50, NC(CCSCC(F)F)C(=O)O (stereo not given) : > 100 µM (inactive)

Entry Nc1n[n+]([O-])c2cc([N+](=O)[O-])ccc2[n+]1[O-] — recorded GI50 = 2.87 µM (inactive)

Form field GI50, entry N=C(N)N/N=C\c1c(-c2cccc([N+](=O)[O-])c2)nc2sccn12 : 15 µM (inactive)

Consider the additional compound presented here.
Measured GI50, N#CC1C(=O)Nc2sc(C(=O)c3ccc(Br)cc3)c(N)c2C12CCCCC2 (stereo not given) : 20.2 µM (inactive)

---

# key: entry, value: GI50
- Tested on: HCT-15

Illustrative cases are given below, each with its answer.
HCT-15 data for N#Cc1c(NC(=S)Nc2ccc(Cl)cc2)sc2c1CCN(N1CCc3c(sc(NC(=S)Nc4ccc(Cl)cc4)c3C#N)C1)C2 ; its GI50: 24 µM

Tested on HCT-15, the item CCOC(=O)N1C=CC(=C2C(=C3C=CN(C(=O)OCC)C=C3)C(=C3C=CN(C(=O)OCC)C=C3)C2=C2C=CN(C(=O)OCC)C=C2)C=C1 showed GI50 equal to 12.4 µM

***
Per the reported HCT-15 data, NC(CCC(=O)NC(CSC(=O)N(O)c1ccc(Br)cc1)C(=O)NCC(=O)O)C(=O)O (centres undefined) has GI50 of > 50 µM

// GI50 (HCT-15) for N#CC(/C(=N\NC(N)=S)C(=O)NC1C2CC3CC(C2)CC1C3)c1ccc(Cl)cc1 (centres undefined) = > 100 µM

---

- System: NCI-H460
- ASSAY REMARKS: NCI tumour cell line growth inhibition, 48 h
Active and inactive are the calls of the source. No stated cut-off is given here; in the data, active = GI50 up to about 1.1 µM and inactive = higher.
MEASURE NAME: GI50

Example cases with answers are listed next.
So, O=c1c2c3c(sc2nc2n1N=CN(c1ccc(Cl)cc1)C2)CCCC3 ? Its GI50 was 38 µM (inactive)

Form field GI50, entry Cc1cc(C(=O)N2CCN(Cc3ccccc3)CC2)c(C)o1 : > 100 µM (inactive)

// sample CC(CCC(=O)O)(c1cc(Br)c(O)c(Br)c1)c1cc(Br)c(O)c(Br)c1 , its GI50 was 40.6 µM (inactive)

Entry Oc1cccc2cc(Br)cnc12 , GI50 reported as 5.89 µM (inactive)

The molecule listed as CC1CCC2(C(=O)O)CCC3(C)C(=CCC4C5(C)CC(O)C(O)C(C)(CO)C5C(O)CC43C)C2C1C (stereo not given) shows GI50 equal to > 100 µM (inactive)

get_value(item= Cc1cc(O)c2c(c1)C(O)(c1ccc3c(c1O)C(=O)c1c(O)cc(C)cc1C3(O)C1OC(CO)C(O)C(O)C1O)c1cccc(O)c1C2=O (stereo not given) , readout=GI50) returns 14 µM (inactive)

Recorded GI50 (molecule Cc1cccc(C)c1NC(=O)C(=O)C1C(=O)NC(=O)NC1=O ): > 100 µM (inactive)

Kindly note the recorded GI50 for c1cnc(N2CCN(Cc3c[nH]c4ccccc34)CC2)nc1 , which is 31.3 µM (inactive)

Field GI50 (entry COc1ccc(O)c2c(=O)ccccc12 ) reads > 100 µM (inactive)

Measured GI50, CCOP1(=O)C=C(Sc2ccc([N+](=O)[O-])cc2[N+](=O)[O-])C(C)(C)O1 (stereo not given) : 21 µM (inactive)

Further cases:
Lookup result for CCOC(=O)C1(Cc2ccccc2)CCN(C(=O)c2ccccc2)C2C1C2(Cl)Cl (stereo not given) ; measured GI50: 16.8 µM (inactive)

Reference source for all entries: ChEMBL document CHEMBL1201862
